The values you see were collected from patent US20260248763A1.

# target_or_test_system: V1aR (Homo sapiens, UniProt P37288)
# Sequence (P37288 whole entry, species assumed): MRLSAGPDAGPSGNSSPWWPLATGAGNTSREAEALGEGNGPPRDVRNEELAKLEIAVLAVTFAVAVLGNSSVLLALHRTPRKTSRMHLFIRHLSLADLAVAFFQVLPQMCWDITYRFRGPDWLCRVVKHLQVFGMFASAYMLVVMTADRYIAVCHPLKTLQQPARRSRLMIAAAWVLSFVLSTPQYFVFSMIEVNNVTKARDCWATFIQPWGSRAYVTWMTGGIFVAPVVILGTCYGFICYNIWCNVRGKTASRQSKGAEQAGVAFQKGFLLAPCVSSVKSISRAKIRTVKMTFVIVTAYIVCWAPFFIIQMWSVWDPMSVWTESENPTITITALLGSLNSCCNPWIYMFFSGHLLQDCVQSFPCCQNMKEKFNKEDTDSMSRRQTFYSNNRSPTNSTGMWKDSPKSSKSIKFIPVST
# procedure_text: Ca2+ mobilization in cells stably expressing V1aR (FLIPR, antagonist mode)
# particulars: V1a-CHO stably transfected cell line
value_type: IC50 (nM)

Completed entries (count: 5):
CO/N=C1/C[C@@H](CO)N(C(=O)c2ccc(-c3cccc(C#N)c3C)c(OC)n2)C1 [Example A0215] : 11200
CO/N=C1/C[C@@H](CO)N(C(=O)c2ccc(-c3cccc(C#N)c3Cl)c3c2OCCO3)C1 [Example C0154] : 1610
CON=C1CC(CO)N(C(=O)c2ccc(-c3cccc(C#N)c3C)c3c2OCO3)C1 (single isomer, unassigned) [Example C0098] : 13200
CO/N=C1/C[C@@H](CO)N(C(=O)c2ccc(-c3cccc(Cl)c3C)cc2)C1 [Example C0056] : 2760
CO/N=C1/C[C@@H](CO)N(C(=O)c2ccc(-c3cccc(C)c3C)c3c2OCO3)C1 [Example C0062] : 2740

A. CO/N=C1/C[C@@H](CO)N(C(=O)c2ccc(-c3ccccc3C)cc2C)C1 [Example C0044]
B. CO/N=C1/C[C@@H](CO)N(C(=O)c2cnc(-c3cccc(Cl)c3C)cn2)C1 [Example C0041]
Looking at A and B , which one comes out lower in IC50 terms? Pick one; state its label.
B
(B: 1750 nM, A: 5510 nM)
